I'd appreciate it if you could supply IC50 values for the items below.
System: 3T3 cells
Assay: MTT cell proliferation assay, 3T3 cells
Type: cell-based
Details: Mus musculus, NIH3T3; 3T3 fibroblast cells; incubation approximately 64-72 hours

-- ask Give its IC50 value. Item: CC(C)(CNC(=O)/C=C/c1ccc(N)nc1)Oc1cc(Cl)cc(-c2ccc(C(=O)N3CCOCC3)cc2)c1 [Compound 347]
-- reply > 10 µM

-- ask Follow-up entry: CC(C)(CNC(=O)/C=C/c1ccc(N)nc1)Oc1ccc(-c2ccc(C(=O)N3CC(F)(F)C3)cc2)cc1Cl [Compound 333]
-- reply > 10 µM

-- ask Follow-up entry: Nc1ccc(/C=C/C(=O)NCCOc2ccc(-c3nnc(C(=O)N4CCOCC4)o3)cc2Cl)cn1 [Compound 351]
-- reply > 10 µM

-- ask Follow-up entry: Nc1ccc(/C=C/C(=O)NCCCOc2ccc(-c3ccc(C(=O)N4CC(F)(F)C4)cc3)cc2Cl)cn1 [Compound 336]
-- reply 0.1 to 5 µM

-- ask Follow-up entry: CN1CCN(C(=O)c2ccc(-c3ccc(OCCNC(=O)/C=C/c4ccc(N)nc4)c(Cl)c3)cc2)CC1 [Compound 313]
-- reply 0.1 to 5 µM

-- ask Follow-up entry: CC(=O)c1ccc(-c2cccc(OCCNC(=O)/C=C/c3cccnc3)c2Cl)s1 [Compound 302]
-- reply 0.1 to 5 µM

-- ask Follow-up entry: Nc1ccc(/C=C/C(=O)NCCOc2ccc(-c3ccc(C(=O)N4CC(F)(F)C4)cc3)cc2C(F)(F)F)cn1 [Compound 338]
-- reply < 0.1 µM

-- ask Follow-up entry: Nc1ccc(/C=C/C(=O)NCCOc2cc(Cl)cc(-c3ccc(C(=O)N4CCOCC4)cc3)c2)cn1 [Compound 344]
-- reply 0.1 to 5 µM

-- ask Follow-up entry: Nc1ccc(CNC(=O)/C=C/COc2ccc(-c3ccc(C(=O)N4CCC(F)(F)CC4)cn3)cc2C(F)(F)F)cn1 [Compound 353]
-- reply > 10 µM

-- ask Follow-up entry: Cc1cc(-c2ccc(OCCNC(=O)/C=C/c3ccc(N)nc3)c(Cl)c2)ccc1C(=O)N1CCOCC1 [Compound 314]
-- reply 0.1 to 5 µM

-- ask Follow-up entry: Nc1ccc(/C=C/C(=O)NCCCOc2ccc(-c3ccc(C(=O)N4CCOCC4)cc3)cc2Cl)cn1 [Compound 348]
-- reply 0.1 to 5 µM

-- ask Follow-up entry: CC(C)(O)c1ccc(-c2ccc(OCCNC(=O)/C=C/c3cccnc3)c(Cl)c2)s1 [Compound 320]
-- reply 5 to 10 µM

-- ask Follow-up entry: Nc1ccc(/C=C/C(=O)NCCOc2ccc(-c3ccc(C(=O)N4CCNCC4)cc3)cc2Cl)cn1 [Compound 326]
-- reply 0.1 to 5 µM

-- ask Follow-up entry: Nc1ccc(/C=C/C(=O)NCCOc2ccc(-c3ccc(C(=O)N4CCCCC4)cc3)cc2Cl)cn1 [Compound 329]
-- reply > 10 µM

-- ask Follow-up entry: Nc1ccc(/C=C/C(=O)NCCS(=O)(=O)c2ccc(-c3ccc(C(=O)N4CC(F)(F)C4)cc3)cc2Cl)cn1 [Compound 337]
-- reply > 10 µM
